# System: R275C/Slo1WT/beta2
# measurement_protocol: modulators of BK channel variants, profiling panel, selectivity assay, cell-based, U2OS BacMam, thallium flux, beta subunits (AID 1259406);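 further: initial slope of Thallos dye fluorescence rise after thallium is added; log ratio against the mean of 0.3% DMSO vehicle wells on the same plate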
# measurement_conditions: at 30 µM
Just so you know, the groups by log fold change Tl+ flux go like this: lower bin (below -0.01), middle bin (-0.01 to below 0.01), upper bin (0.01 or more)

[[record]]
compound = "O=C(NCC1CC1)c1ccccc1NS(=O)(=O)c1cccc2nonc12"
discrete_label = "upper bin"

[[record]]
compound = "C1=CC=CC(C2C=CC=CC=C2)C=C1"
discrete_label = "lower bin"

[[record]]
compound = "CNC(=O)Oc1ccc2c(c1)[C@]1(C)CCN(C)C1N2C (some centres not stated)"
discrete_label = "lower bin"


Returns: class label. Input: Cc1cc(CNCC(O)C(F)(F)F)no1 (configuration not stated)
upper bin

Returns: class label. Input: FC(F)(F)c1cc(C=Cc2noc(-c3ccc(CN4CCCC4)cc3)n2)cc(C(F)(F)F)c1
middle bin

Returns: class label. Input: Nc1nc(Cl)nc2c1ncn2[C@@H]1O[C@H](CO)[C@@H](O)[C@H]1O
middle bin

Returns: class label. Input: COc1ccc(C[C@H](C)NC[C@@H](O)c2ccc(O)c(NC=O)c2)cc1
upper bin

Returns: class label. Input: O=C(Nc1ccccc1)OCc1cc(-c2ccccc2)c(C(F)(F)F)s1
lower bin

Returns: class label. Input: Cc1nn(S(=O)(=O)c2ccccc2)c(C)c1Oc1ccc(Cl)cc1
lower bin

Returns: class label. Input: CCOC(=O)C1CCC(C(=O)OCC)N1C(=O)Nc1ccc(Cl)cc1 (configuration not stated)
middle bin

====

# target_entity: L-lactate dehydrogenase (Plasmodium falciparum (isolate CDC / Honduras)) (UniProt Q27743)
# Sequence (Q27743 whole entry, looked up): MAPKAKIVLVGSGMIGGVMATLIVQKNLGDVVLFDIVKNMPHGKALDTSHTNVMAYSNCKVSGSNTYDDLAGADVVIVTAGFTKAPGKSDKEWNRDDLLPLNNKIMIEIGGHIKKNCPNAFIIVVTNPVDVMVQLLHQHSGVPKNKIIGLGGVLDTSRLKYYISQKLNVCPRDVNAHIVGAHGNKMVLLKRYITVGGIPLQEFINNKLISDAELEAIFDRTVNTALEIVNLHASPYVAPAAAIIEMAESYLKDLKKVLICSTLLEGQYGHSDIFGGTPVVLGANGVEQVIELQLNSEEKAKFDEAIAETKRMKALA
# measurement_protocol: PfLDH activity inhibition – cell lysate, 3D7 strain, counter-screen for P. falciparum growth inhibition project (AID 2304);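 further: 0% = vehicle and 100% = reference inhibitor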
# measurement_conditions: P. falciparum 3D7 crude extract, LDH APAD/NBT absorbance; at 2 µM; stronger effect = higher value
value_kind: inhibition (%)
Give bare numbers, in %.

Okay, here is my list. What is inhibition for each of these?
1. CCc1cn2c3c(cc(C(=O)N[C@@H](Cc4ccccc4)[C@H](O)CNC4CCOCC4)cc13)N(C)S(=O)(=O)C2
2. Fc1ccc(Nc2n[nH]c(CNC3CCN(Cc4ccc(Cl)c(Cl)c4)CC3)n2)cc1
3. Cc1cccc(CN2CCC(CNC(=O)c3cc4c(-c5ccccc5F)nn(C)c4s3)CC2)c1
4. CCOc1cc2ncnc(Nc3ccc(OCc4c(F)cccc4F)c(OC)c3)c2cc1OCC
5. N=C(N)c1ccc(Nc2nc(Nc3ccc(-c4ccccc4)cc3)ncc2[N+](=O)[O-])cc1
6. N#Cc1cccc(NC(=O)Nc2ccc3c(c2)CN(Cc2c[nH]c4ncccc24)C3)c1
7. CCNc1cc(C(=O)N[C@@H](Cc2ccccc2)[C@H](O)CNCCCc2ccc(OC)cc2)cc(N2CCCC2=O)c1
8. CN(C)Cc1ccc(-c2ccc3c(Nc4ccc(Oc5ccccn5)cc4)ccnc3c2)o1

[-1, 5, -4, -2, -3, 5, 2, 1]

The compound identified as CC(C)(C)c1ccc(CN2CCCCC(NC(=O)c3cc(-c4ccccc4F)cs3)C2)cc1 (centres undefined) registered its inhibition at 3

====

# measurement_protocol: inhibition of 3D7 malaria parasite growth – strain 3D7 (AID 2306);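 further: 0% = DMSO wells and 100% = chloroquine plus artemisinin control wells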
# measurement_conditions: P. falciparum 3D7 erythrocytic growth, LDH absorbance, 72 h; at 2 µM; stronger effect = higher value
Exercise: state measured growth inhibition for each of the molecules provided.
Answers are plain numbers, in %.

Okay, here is my list. What is growth inhibition for each of these?
1. Cc1cccc(-c2c(C)nc(N)nc2N)c1
2. O=C(/C=C/c1c(Cl)cccc1Cl)NC1CCC(CN2CCC(Cc3cc4ccccc4[nH]3)CC2)CC1 (stereo not given)
3. CN(C)CCNCc1ccc(-c2ccc3c(Nc4ccc(Cl)cc4F)ccnc3c2)o1
4. c1ccc2c(CNCCCN3CCN(CCCNCc4c5ccccc5cc5ccccc45)CC3)c3ccccc3cc2c1
5. CCOC(=O)c1ccc(NC(=O)N(Cc2ccc(-c3ccc(CN4CCNCC4)cc3)cc2)Cc2cccnc2)cc1
6. Cc1cc2c3c(N)nc(N)nc3ccc2n1C
7. Cc1cccc2[nH]c(-c3ccc(-c4ccc(NC(=O)Nc5ccc(Cl)cc5)cc4)cc3)nc12

[88, 91, 99, 101, 94, 95, 101]

Okay, here is my list. What is growth inhibition for each of these?
1. Cc1[nH]n(-c2cccc(Cl)c2)c(=O)c1-c1ccc(Cl)cc1
2. CCn1c(-c2nonc2N)nc2c(-c3cccc(NC(=O)Nc4ccccc4Cl)c3)ncc(OCCCN)c21
3. CC(C)Cn1cc2c(ccc3nc(N)nc(N)c32)n1
4. O=C(/C=C/c1ccc(Cl)c(Cl)c1)NCCCCCCN1CCCN(C(=O)Nc2cccc(C(F)(F)F)c2)CC1
5. CCNC(=O)Nc1ccc(-c2cnc(N)c(-c3nc4ccc(OC)cc4[nH]3)c2)cc1
6. Cc1ccc(Nc2nccc(Nc3ccc4c(c3)nc(Nc3cc(C(C)(C)C)on3)n4C)n2)cc1S(C)(=O)=O
7. CCOc1cc2ncnc(Nc3ccc(OCc4c(Cl)cccc4Cl)c(OC)c3)c2cc1OCC
8. CC(C)(CN)c1nc(-c2ccc(Cl)c(O)c2)c(-c2ccncc2)[nH]1

1: 99; 2: 99; 3: 97; 4: 95; 5: 100; 6: 100; 7: 89; 8: 97

Okay, here is my list. What is growth inhibition for each of these?
1. Cc1cc2nc(-c3ccc(OCC(=O)NCc4cccc(C(F)(F)F)c4)cc3)[nH]c2cc1C
2. NS(=O)(=O)c1cccc(N=Cc2c(O)[nH]c3ccc(S(=O)(=O)Cc4c(Cl)cccc4Cl)cc23)c1
3. COc1ccc(Cc2cnc3nc(N)nc(N)c3c2C)cc1OC
4. Oc1ccc2c(CNC3CCCCC3)c(O)ccc2c1CNC1CCCCC1
5. O=C(NCCN1CCCC1)c1cccc(-c2ccc(-c3nc4ccc(C(F)(F)F)cc4[nH]3)cc2)c1

[94, 92, 93, 101, 101]

====

# measurement_protocol: UWB1.289 ovarian carcinoma cell growth inhibition, synergistic combos for chromothripsis tumors, BGB or cisplatin combos (AID 1671456);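 further: cells exposed to compound for four days; 0% = vehicle DMSO and 100% = killing by high DMSO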
# measurement_conditions: UWB1.289 ovarian carcinoma cells, measured here: inhibition with BGB combination, at 0.05 µM, stronger effect = higher value
Exercise: state measured inhibition for each of the compounds provided.
Numbers only, in %.

[[record]]
compound = "O=c1[nH]c(-c2ccc(C(F)(F)F)cc2)nc2c1CSCC2"
value_kind = "inhibition"
measured = -13.9

[[record]]
compound = "NC(=O)c1ncn(C2OC(CO)C(O)C2O)n1 (stereo not given)"
value_kind = "inhibition"
measured = 9.47

[[record]]
compound = "O=C(Nc1ccccc1)c1ccccc1O"
value_kind = "inhibition"
measured = 0.707


Okay, here is my list. What is inhibition for each of these?
1. CCc1c2c(nc3ccc(O)cc13)-c1cc3c(c(=O)n1C2)COC(=O)[C@]3(O)CC
2. O=C(Nc1ccncc1)c1cc([N+](=O)[O-])ccc1Cl

1. 31
2. -27.4

====

# measurement_protocol: ovarian cancer cell viability with rucaparib, profiling panel, oncology-focused library, rucaparib conditional (AID 1508598)
# measurement_conditions: patient-derived ovarian cancer cells, CellTiter-Glo viability, 144 h; at 5 µM; OCI-P5x cells; without rucaparib
The source made the active and inactive calls.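 Rule for the calls: active = normalized viability below 100% at a tested concentration; inactive = the rest.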
Select the matching outcome among yes (1) = active, no (0) = inactive

Query: recorded result category for O=c1[nH]c(-c2ccc(C(F)(F)F)cc2)nc2c1CSCC2 in this test
yes (1)

====

# measurement_protocol: inhibition of 3D7 malaria parasite growth – strain 3D7 (AID 2306);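 further: 0% = DMSO wells and 100% = chloroquine plus artemisinin control wells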
# measurement_conditions: P. falciparum 3D7 erythrocytic growth, LDH absorbance, 72 h; at 2 µM; stronger effect = higher value
Exercise: state measured growth inhibition for each of the compounds provided.
Give bare numbers, in %.

These recorded examples may help you get a feel for the data.
[[record]]
compound = "Cc1c(C)c2c(c(C)c1O)CCC(C)(CCC(=O)O)O2 (stereo not given)"
measured = 96

[[record]]
compound = "CN1CCCC(CN2CCN(Cc3cccc(-c4cccc(-c5nc6ccccc6[nH]5)c4)c3)CC2)C1 (stereo not given)"
measured = 100

[[record]]
compound = "COc1cc(Cc2cnc(N)nc2N)cc(OCCCCCCC(=O)O)c1OC"
measured = 90

[[record]]
compound = "CN(c1ccc(NC(=O)Nc2cc(C(F)(F)F)ccc2F)cc1)c1ccnc(NCCN2CCOCC2)n1"
measured = 97

[[record]]
compound = "Cc1cc(-c2cccc(CNC3CCN(C)CC3)c2)ccc1S(=O)(=O)NCCc1ccccn1"
measured = 97


Okay, here is my list. What is growth inhibition for each of these?
1. Nc1ncc(-c2ccc(Br)cc2)c(N)n1
2. Fc1cccc(COc2ccc(Nc3ncnc4cc(/C=C/[C@@H]5CCCN5)sc34)cc2Cl)c1
3. Cc1nc(NCc2ccccc2)cc(NCC(O)c2ccc(O)cc2)n1 (stereo not given)
4. Cc1[nH]c(C)c(-c2ccc(Oc3cccc(C(F)(F)F)c3)cc2)c(=O)c1Br
5. CN(C)CCOc1ccc(-c2cc(-c3ccc(Cl)c(O)c3)c(-c3ccnc(N)n3)o2)cc1

1. 89
2. 100
3. 85
4. 99
5. 100
